- System: Yap1 mRNA
- procedureSummary: Dose-dependent inhibition of human Yap1 in A-431 cells (Example 7, 10,000 cells per well, RTS36584)
- Type: cell-based
- measurementConditions: Table 59, 4000.00 nM, free uptake, A-431 cells 10,000 cells per well, 48 hours
- Experimental: Modified oligonucleotides described in the studies above were tested at various doses in A-431 cells. […] After approximately 48 hours, Yap1 mRNA levels were measured as previously described using the Human Yap1 primer-probe set RTS36584. Yap1 mRNA levels were normalized to total RNA content, as measured by RIBOGREEN®. […] IC50s were calculated using a linear regression on a log/linear plot of the data in excel.
Strand notation (5' to 3'): a small letter for the sugar, then the base; units joined by * are phosphorothioate-linked, units joined directly phosphodiester-linked; [ ] holds rarer units or linkages, { } end groups; capitals alone tell only the bases. k = constrained ethyl (cEt); [5mC] = 5-methylcytosine; d = 2'-deoxy (DNA)

>  <substance>
958758 (k[5mC]*kT*kA*dT*dT*d[5mC]*dA*dG*dT*dG*dA*dT*d[5mC]*kT*kG*k[5mC]; antisense) [compound 958758]

>  <Yap1 mRNA, % UTC [% UTC]>
12

$$$$
>  <substance>
958553 (k[5mC]*k[5mC]*kA*dT*dT*dA*dT*dT*dA*d[5mC]*dT*d[5mC]*d[5mC]*kT*kG*kT; antisense) [compound 958553]

>  <Yap1 mRNA, % UTC [% UTC]>
5

$$$$
>  <substance>
958572 (kA*kT*kT*dA*dT*dA*dG*dG*d[5mC]*dA*d[5mC]*dT*d[5mC]*k[5mC]*kT*kT; antisense) [compound 958572]

>  <Yap1 mRNA, % UTC [% UTC]>
22

$$$$

* * *

- Tested on: Yap1 mRNA
- procedureSummary: Antisense inhibition of human Yap1 in SNU-449 cells by modified oligonucleotides, single dose (Example 5, RTS36584)
- Format: cell-based
- measurementConditions: Table 48; Yap1 mRNA level relative to untreated control; modified oligonucleotides targeting SEQ ID NO.: 1 and 2
Strand notation (5' to 3'): a small letter for the sugar, then the base; units joined by * are phosphorothioate-linked, units joined directly phosphodiester-linked; [ ] holds rarer units or linkages, { } end groups; capitals alone tell only the bases. e = 2'-O-(2-methoxyethyl) (MOE); k = constrained ethyl (cEt); [5mC] = 5-methylcytosine; d = 2'-deoxy (DNA)
testReadout: YAP1 (% UT)

>  <substance>
1198301 (kT*k[5mC]*kT*dA*dT*dA*dT*dT*dA*dG*dA*dG*kT*eA*kT*eG; antisense) [Compound 1198301]

>  <recordedValue>
43 % UT

$$$$
>  <substance>
1197217 (antisense kT*kT*kA*dA*dA*dG*dT*dG*dT*dA*dT*dG*dT*k[5mC]*kA*kG) [Compound 1197217]

>  <recordedValue>
8 % UT

$$$$
>  <substance>
1198344 (kA*kT*kA*dT*dT*dG*d[5mC]*dA*dA*dT*d[5mC]*dT*kG*eT*k[5mC]*eT; antisense) [Compound 1198344]

>  <recordedValue>
55 % UT

$$$$
>  <substance>
1197200 (antisense kT*kT*kA*dT*dA*dT*dG*dG*dT*dT*dT*dT*dG*kT*kG*kT) [Compound 1197200]

>  <recordedValue>
49 % UT

$$$$
>  <substance>
716524 (antisense kA*k[5mC]*kT*dG*dA*dG*dG*dT*dA*dT*dA*dA*d[5mC]*kT*kG*kG) [Compound 716524]

>  <recordedValue>
59 % UT

$$$$
>  <substance>
1009397 (kA*kA*k[5mC]*dA*d[5mC]*dT*dG*dA*dG*dG*dT*dA*dT*kA*kA*k[5mC]; antisense) [Compound 1009397]

>  <recordedValue>
44 % UT

$$$$
>  <substance>
1198347 (kG*kT*kA*dA*dT*dA*dT*dT*dG*d[5mC]*dA*dA*kT*e[5mC]*kT*eG; antisense) [Compound 1198347]

>  <recordedValue>
14 % UT

$$$$
>  <substance>
1198297 (kA*kT*kT*dA*dG*dA*dG*dT*dA*dT*dG*dT*kG*eG*k[5mC]*eA; antisense) [Compound 1198297]

>  <recordedValue>
8 % UT

$$$$
>  <substance>
1074726 (antisense kG*kG*kT*dA*dT*dA*dA*d[5mC]*dT*dG*dG*dG*d[5mC]*kA*kA*kA) [Compound 1074726]

>  <recordedValue>
23 % UT

$$$$
>  <substance>
1198316 (kG*kG*kA*dA*dG*dA*dT*d[5mC]*dT*dG*dA*dA*kA*e[5mC]*kT*e[5mC]; antisense) [Compound 1198316]

>  <recordedValue>
49 % UT

$$$$
>  <substance>
1198320 (kG*k[5mC]*kT*dT*dT*dG*dG*dA*dA*dG*dA*dT*k[5mC]*eT*kG*eA; antisense) [Compound 1198320]

>  <recordedValue>
26 % UT

$$$$
>  <substance>
1197219 (antisense kA*kA*k[5mC]*dT*dT*dT*dA*dA*dA*dG*dT*dG*dT*kA*kT*kG) [Compound 1197219]

>  <recordedValue>
71 % UT

$$$$
>  <substance>
1198314 (kA*kA*kG*d[5mC]*dA*d[5mC]*dT*dT*dT*dT*dA*d[5mC]*kA*eT*kT*eA; antisense) [Compound 1198314]

>  <recordedValue>
82 % UT

$$$$
